# test_system: long form of human GPR120 (Homo sapiens)
# Sequence (Q5NUL3 1-377 isoform Q5NUL3-1): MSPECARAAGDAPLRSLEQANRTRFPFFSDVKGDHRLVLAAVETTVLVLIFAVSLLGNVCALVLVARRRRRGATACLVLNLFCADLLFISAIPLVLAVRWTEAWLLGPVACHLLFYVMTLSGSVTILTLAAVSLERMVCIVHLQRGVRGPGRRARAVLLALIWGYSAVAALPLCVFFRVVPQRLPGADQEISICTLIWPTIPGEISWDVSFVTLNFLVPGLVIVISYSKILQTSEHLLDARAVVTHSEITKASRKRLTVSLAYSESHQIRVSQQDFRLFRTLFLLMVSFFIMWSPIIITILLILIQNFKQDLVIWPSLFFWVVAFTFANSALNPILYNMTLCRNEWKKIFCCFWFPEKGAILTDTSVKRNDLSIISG
# measurement_protocol: Human GPR120 DiscoveRx PathHunter Beta-Arrestin Assay, Procedure β-arrestin A (3000 cells per well)
# details: read-out: GPR120 B-arrestin A EC50
quantity_kind: EC50 (nM)

>>> reported("Cc1c(CCC(=O)O)ccc(OCc2cc(Cl)cc3cc(CC(F)F)oc23)c1C [Compound 87]")
409

1 = Cc1c(CCC(=O)O)ccc(OCc2cc(F)cc3cc(C4CCCC4)oc23)c1C [Compound 18]
2 = Cc1cc2cc(F)cc(COc3ccc(CCC(=O)O)c(C)c3C)c2o1 [Compound 2]
3 = CCOc1cc(COc2ccc(CCC(=O)O)c(C)c2C)c2oc(CC)cc2c1 [Compound 29]
4 = Cc1nc2c(COc3ccc(CCC(=O)O)c(C)c3C)cc(Cl)cc2s1 [Compound 98]
Highest EC50 first, then in falling order down to the smallest. Output spec: labels arranged per the requested ranking.
1, 3, 2, 4
